Source: the supplement of paper PMC10724198

- Test system: Saccharomyces cerevisiae;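 note: PSI is a weighted mean of sequencing reads over stability bins, variants kept only with over 10 reads, mCherry proximal and sfGFP distal, peptide attached via GGGS linker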
- test: protein stability index of tFT-peptide fusion (C-terminal peptide) (PSI (0-1 scale)); higher = more stable (slower turnover)
- cond: genetic background: wild type; temperature: 30 C
Entries and their protein stability index
Note: the reply should be a number with no unit written.

Please review the following examples before continuing.
>>> df
   sequence_code          reported_metric  data_value
0   GRGGRGWGEWDR  protein stability index       0.706
1   CNGPRLFDKSPI  protein stability index       0.695
2   MRKGKGGGPRRR  protein stability index       0.699
3   HGHLGKFLGARE  protein stability index       0.689
4   PPAPPLFVSSPG  protein stability index       0.684

The measured protein stability index associated with `GVESQIHISTYE` reads 0.686

Briefly, protein stability index measured for `PPSPLAPPLPPP` : 0.709

Form: sequence = `IGGGWIGRYVSR` ; protein stability index = 0.684

// protein stability index value for `GSLIVAARGVAG` : 0.681

The sequence listed as `GRAPPGHSLPVR` has a reported protein stability index of 0.719
